# Test system: SK-MEL-28 melanoma
# EXPERIMENT DESCRIPTION: NCI tumour cell line growth inhibition, 48 h
Measured GI50 by item
TEST READOUT: GI50

COMPOUND STRING	TEST READOUT	ASSAY VALUE
Cc1cc(S(=O)(=O)Nc2n[nH]c(-c3ccc(Cl)cc3)c2C#N)c(S)cc1Cl	GI50	> 100 µM
CCOC(=O)Cc1csc(Nc2nc(O)c(C3=c4ccccc4=NC3=O)s2)n1	GI50	45.7 µM
COc1ccc(/C=C/C(=O)c2ccc(B(O)O)cc2)cc1O	GI50	22.3 µM
CO[C@@H]1[C@H](N(C)C(=O)c2ccccc2)C[C@@H]2O[C@]1(C)n1c3ccccc3c3c4c(c5c6ccccc6n2c5c31)C(=O)NC4=O	GI50	> 100 µM
CN(CCNc1ccc(C(=N)N)cc1)c1ccc(C(=N)N)cc1	GI50	36.4 µM
CC(=O)NS(=O)(=O)c1ccc(-n2nc(-c3ccccc3)cc2-c2cc(O)ccc2O)cc1	GI50	> 100 µM
O=C(CSc1nc2ccc([N+](=O)[O-])cc2[nH]1)Nc1ccc([N+](=O)[O-])cc1	GI50	2.82 µM

Source of measurements: PubChem BioAssay (NCI)
